Every entry's value here was drawn from paper PMC10914734.

Assay: Pharmacokinetics in mice
Format: in vivo
Conditions: male, CD-1, mouse, plasma, po, 14b, p.o. (20 mg/kg), read-out: AUCINF_obs
test readout: AUC(0-inf) (µg·h/mL)
Kindly answer with a numeric value in µg·h/mL, unit omitted.

Task: For the compound shown here, O=C(NCc1ccccc1)C(=O)[C@H](C[C@@H]1CCCNC1=O)NC(=O)[C@H](CC1CCCCC1)NC(=O)c1cc2ccccc2o1 [14b] , give the reported AUC(0-inf).
Result: 0.488

---

Let's look at some compounds and their measured AUC(0-inf).
Experiment: Pharmacokinetics in rats
Type: in vivo
Conditions: male, SD, rat, plasma, ip, i.p. (5 mg/kg), read-out: AUCINF_obs
Note: unit ng·h/mL is implicit; provide only the numeric part.

O=C(NCc1ccccc1)C(=O)[C@H](C[C@@H]1CCCNC1=O)NC(=O)[C@H](Cc1ccc(F)cc1)NC(=O)c1cc2ccccc2o1 [14a]    4760

Task: Please report the recorded AUC(0-inf) for O=C(NCc1ccccc1)C(=O)[C@H](C[C@@H]1CCCNC1=O)NC(=O)[C@H](CC1CCCCC1)NC(=O)c1cc2ccccc2o1 [14b] .
Result: 10600
